# TEST SUMMARY: Solubility test, equilibrium method, UV-visible spectrophotometry
# Type: physicochemical
# MEASUREMENT PARAMETERS: saline or isotonic, thermodynamic from solid; normal saline; read-out: Solubility in Normal Saline (NS)
# solubility per record follows
Note: unit µg/mL is implicit; provide only the numeric part.

molecule="CCc1c2c(nc3ccc(OC(=O)NCCCOCc4cn(CCO[C@H]5O[C@@H](CO)[C@H](O)[C@@H](O)[C@@H]5O)nn4)cc13)-c1cc3c(c(=O)n1C2)COC(=O)[C@]3(O)CC [Compound 81]" measurement=985

Using known records, supply solubility for CCc1c2c(nc3ccc(OC(=O)NCCCCCOCc4cn([C@H]5O[C@@H](CO)[C@H](O)[C@@H](O)[C@@H]5O)nn4)cc13)-c1cc3c(c(=O)n1C2)COC(=O)[C@]3(O)CC [Compound 87]
894

Indicate its recorded solubility; the molecule in question is CCc1c2c(nc3ccc(OC(=O)NCCOCc4cn([C@H]5O[C@@H](CO)[C@H](O)[C@@H](O)[C@@H]5O)nn4)cc13)-c1cc3c(c(=O)n1C2)COC(=O)[C@]3(O)CC [Compound 66]
1590

Read the entry CCc1c2c(nc3ccc(OC(=O)NCCOCCOCc4cn(CCO[C@H]5O[C@@H](CO)[C@H](O)[C@@H](O)[C@@H]5O)nn4)cc13)-c1cc3c(c(=O)n1C2)COC(=O)C3(O)CC (stereo partly shown) [Compound 74] and write its reported solubility.
3950

###

Reported IC50 values for a set of compounds
# Test system: 143B
# TEST SUMMARY: Cytotoxicity test (MTT, 72 h)
# MEASUREMENT PARAMETERS: Homo sapiens, read-out: 50% Inhibiting Concentration value (IC50)
Response body: numeric value in µM, unit text excluded.

compound="CCc1c2c(nc3ccc(OC(=O)OCCOCCOCc4cn(CCO[C@H]5O[C@@H](CO)[C@H](O)[C@@H](O)[C@@H]5O)nn4)cc13)-c1cc3c(c(=O)n1C2)COC(=O)[C@]3(O)CC [Compound 57]" units_label=µM measurement=10.1
compound="CCc1c2c(nc3ccc(OC(=O)OCCOCCOCCOCCOCc4cn([C@H]5O[C@@H](CO)[C@H](O)[C@@H](O)[C@@H]5O)nn4)cc13)-c1cc3c(c(=O)n1C2)COC(=O)[C@]3(O)CC [Compound 42]" units_label=µM measurement=10.6
compound="CCc1c2c(nc3ccc(OC(=O)NCCCOCc4cn(CCO[C@H]5O[C@@H](CO)[C@H](O)[C@@H](O)[C@@H]5O)nn4)cc13)-c1cc3c(c(=O)n1C2)COC(=O)[C@]3(O)CC [Compound 81]" units_label=µM measurement=8.06

Now for a further compound.
Fill in reported IC50 for this entry: CCc1c2c(nc3ccc(OC(=O)OCCOCCOCCOCc4cn(CCO[C@H]5O[C@@H](CO)[C@H](O)[C@@H](O)[C@@H]5O)nn4)cc13)-c1cc3c(c(=O)n1C2)COC(=O)[C@]3(O)CC [Compound 58]
7.79

###

# System: PANC-1
# TEST SUMMARY: Cytotoxicity test (MTT, 72 h)
# MEASUREMENT PARAMETERS: Homo sapiens, PANC-1, 72 h, read-out: 50% Inhibiting Concentration value (IC50)
REPORTED ENDPOINT: IC50 (µM)
All answers are understood in µM, so give the number only.

Fetch value of IC50 on PANC-1 for CCc1c2c(nc3ccc(OC(=O)OCCOCc4cn([C@H]5O[C@@H](CO)[C@H](O)[C@@H](O)[C@@H]5O)nn4)cc13)-c1cc3c(c(=O)n1C2)COC(=O)[C@]3(O)CC [Compound 37] .
13.7

Write down measured IC50 (PANC-1) for this molecule. CCc1c2c(nc3ccc(OC(=O)NCCCOCc4cn(CCO[C@H]5O[C@@H](CO)[C@H](O)[C@@H](O)[C@@H]5O)nn4)cc13)-c1cc3c(c(=O)n1C2)COC(=O)[C@]3(O)CC [Compound 81]
9.98

Give the observed IC50 of CCc1c2c(nc3ccc(OC(=O)NCCCOCc4cn([C@H]5O[C@@H](CO)[C@H](O)[C@@H](O)[C@@H]5O)nn4)cc13)-c1cc3c(c(=O)n1C2)COC(=O)[C@]3(O)CC [Compound 80] for PANC-1.
7.36
